Values compiled from ChEMBL document CHEMBL4689842.

Test system: Fibroblast
procedure-details: Incucyte cell viability with human fibroblast; also: filed as whole numbers so only -1 and 0 and 1 occur
Assay type: toxicity, cell-based
experimental-setup: 18 h, 10 µM, compound concentration 10 uM, replicate number 2, timepoint 18 hours
Parameter Growth Rate: see the listing below.
quantity-name: Growth Rate

* CCNC(=O)c1cc2c(N3CCOC[C@@H]3C)ccnc2[nH]1 | 0
* COc1cc2c(NC3CCN(C(C)C)CC3)nc(N3CCC(F)(F)CC3)nc2cc1OCCCN1CCCC1 | 0
* CCCOc1ccc([C@@H]2[C@@H](C(=O)O)[C@H](c3ccc4c(c3)OCO4)CN2CC(=O)Nc2c(CC)cccc2CC)cc1 [A-1806262] | 0
* N#Cc1ccc(Nc2ccc3[nH]c(=O)[nH]c3c2)c(Cl)c1 [TP-021n] | 1
* C[C@@H]1CCc2ncc(F)cc2[C@H]2CCCN2c2ccn3ncc(c3n2)C(=O)N1 [SELITRECTINIB] | 0
* CCCc1cc(C)[nH]c(=O)c1CNC(=O)c1cc(-c2ccnc(N3CCN(C)CC3)c2)cc2c1cnn2C(C)C | 0
* O=C(Nc1cccc2c(=O)cc(-c3nnn[nH]3)oc12)c1ccc(OCCCCc2ccccc2)cc1 | 1
* CCCCN(CCCC)C(=O)CN1C[C@@H](c2cc(OC)c3c(c2)OCO3)[C@H](C(=O)O)[C@H]1CC(C)(C)CCC.Cl | 1
* Cc1c(Oc2ccc(F)cc2)c(OC(C)C)nn1-c1ccc(C2CC2)cn1 [IPP/CNRS-A019] | 1
* Nc1nc(NCCc2ccc(O)cc2)nc2nc(-c3ccco3)nn12 [ZM-241385] | 0
* CCCc1c(-c2ccc(O)cc2)nn(-c2ccc(O)cc2)c1-c1ccc(O)cc1 [PROPYLPYRAZOLETRIOL] | 1
* CN(C)CCOc1ccc(-c2nc(-c3ccncc3)c(-c3ccc4c(c3)CC/C4=N\O)[nH]2)cc1 [SB590885] | 1
* COc1ccc(COc2ccc(Cc3cnc(N)nc3N)cc2OC)cc1 [GW632580X] | 0
* CN(CCOc1ccc(C[C@H](Nc2ccccc2C(=O)c2ccccc2)C(=O)O)cc1)c1ccccn1.O | 0
* Cc1cnc(-c2cc(Cl)ccc2F)cc1-n1c(=O)n(CC(N)=O)c2cnccc21 [TP-008] | 1
* COc1cc(N2CCC(N(C)C)CC2)ccc1Nc1ncc(Cl)c(Nc2ccccc2P(C)(C)=O)n1 | 1
* CNc1cc2[nH]c(=O)n(-c3ccc(NC(=O)NS(=O)(=O)c4ccc(Cl)s4)cc3)c(=O)c2cc1F [ELINOGREL] | 0
* Cc1cc(C)cc(C(=O)N(C)[C@H](Cc2ccc(-c3ccccc3)cc2)C(=O)N[C@@H](Cc2c[nH]c3ccccc23)C(=O)O)c1 | 1
* N#CC1(c2ccccn2)CCN(Cc2cc(C(=O)N3CCCC3)c(=O)n3ccccc23)CC1 [MSD-M1PAM-NC] | 0
* c1ccc2oc(-c3csc(C4CCN(Cc5nc6ncccc6[nH]5)CC4)n3)cc2c1 | 1
* O=C(Nc1cccnc1)c1cc(-c2ccnc(F)c2)ccc1OCc1ccccc1 | 1
* C[C@H]1CCCN1Cc1nc2cc(NC(=O)c3ccc4cnccc4c3)ccc2[nH]1 | 1
* CCCCC[C@H](O)/C=C/[C@@H]1[C@@H](C/C=C\CCCC(=O)O)[C@@H](O)C[C@H]1O [DINOPROST] | 1
* CC(C)NCC(O)c1ccc(N)c(C#N)c1 (configuration not stated) [CIMATEROL] | 0
* CO[C@@H]1COCC[C@@H]1N[C@@H]1CC[C@@](C(=O)N2CCc3ncc(C(F)(F)F)cc3C2)(C(C)C)C1 [MK-0812] | 0
* Cc1cc(C(=O)N2Cc3cnn(C)c3Nc3ccccc32)ccc1CNC(=O)N1CCC[C@H]1C(=S)N1CCCN(C)CC1 | 1
* N#Cc1c(N)nc(SCC(N)=O)c(C#N)c1-c1ccc(OCC2CC2)cc1 | 1
